These entries and their values trace back to patent US20230115176A1.

molecular target: Human C5 (Homo sapiens); construct: purchased Complement Technology; experiment: Red blood cell (RBC) hemolysis assay, luminescent (Example 13, Table 22); format: cell-based; details: sheep EA cells, […] C5-depleted human serum, 0.5 nM human C5, 1 hour 37° C., luminescence; further: 1.5% C5-depleted human serum
Sequence (P01031 19-1676): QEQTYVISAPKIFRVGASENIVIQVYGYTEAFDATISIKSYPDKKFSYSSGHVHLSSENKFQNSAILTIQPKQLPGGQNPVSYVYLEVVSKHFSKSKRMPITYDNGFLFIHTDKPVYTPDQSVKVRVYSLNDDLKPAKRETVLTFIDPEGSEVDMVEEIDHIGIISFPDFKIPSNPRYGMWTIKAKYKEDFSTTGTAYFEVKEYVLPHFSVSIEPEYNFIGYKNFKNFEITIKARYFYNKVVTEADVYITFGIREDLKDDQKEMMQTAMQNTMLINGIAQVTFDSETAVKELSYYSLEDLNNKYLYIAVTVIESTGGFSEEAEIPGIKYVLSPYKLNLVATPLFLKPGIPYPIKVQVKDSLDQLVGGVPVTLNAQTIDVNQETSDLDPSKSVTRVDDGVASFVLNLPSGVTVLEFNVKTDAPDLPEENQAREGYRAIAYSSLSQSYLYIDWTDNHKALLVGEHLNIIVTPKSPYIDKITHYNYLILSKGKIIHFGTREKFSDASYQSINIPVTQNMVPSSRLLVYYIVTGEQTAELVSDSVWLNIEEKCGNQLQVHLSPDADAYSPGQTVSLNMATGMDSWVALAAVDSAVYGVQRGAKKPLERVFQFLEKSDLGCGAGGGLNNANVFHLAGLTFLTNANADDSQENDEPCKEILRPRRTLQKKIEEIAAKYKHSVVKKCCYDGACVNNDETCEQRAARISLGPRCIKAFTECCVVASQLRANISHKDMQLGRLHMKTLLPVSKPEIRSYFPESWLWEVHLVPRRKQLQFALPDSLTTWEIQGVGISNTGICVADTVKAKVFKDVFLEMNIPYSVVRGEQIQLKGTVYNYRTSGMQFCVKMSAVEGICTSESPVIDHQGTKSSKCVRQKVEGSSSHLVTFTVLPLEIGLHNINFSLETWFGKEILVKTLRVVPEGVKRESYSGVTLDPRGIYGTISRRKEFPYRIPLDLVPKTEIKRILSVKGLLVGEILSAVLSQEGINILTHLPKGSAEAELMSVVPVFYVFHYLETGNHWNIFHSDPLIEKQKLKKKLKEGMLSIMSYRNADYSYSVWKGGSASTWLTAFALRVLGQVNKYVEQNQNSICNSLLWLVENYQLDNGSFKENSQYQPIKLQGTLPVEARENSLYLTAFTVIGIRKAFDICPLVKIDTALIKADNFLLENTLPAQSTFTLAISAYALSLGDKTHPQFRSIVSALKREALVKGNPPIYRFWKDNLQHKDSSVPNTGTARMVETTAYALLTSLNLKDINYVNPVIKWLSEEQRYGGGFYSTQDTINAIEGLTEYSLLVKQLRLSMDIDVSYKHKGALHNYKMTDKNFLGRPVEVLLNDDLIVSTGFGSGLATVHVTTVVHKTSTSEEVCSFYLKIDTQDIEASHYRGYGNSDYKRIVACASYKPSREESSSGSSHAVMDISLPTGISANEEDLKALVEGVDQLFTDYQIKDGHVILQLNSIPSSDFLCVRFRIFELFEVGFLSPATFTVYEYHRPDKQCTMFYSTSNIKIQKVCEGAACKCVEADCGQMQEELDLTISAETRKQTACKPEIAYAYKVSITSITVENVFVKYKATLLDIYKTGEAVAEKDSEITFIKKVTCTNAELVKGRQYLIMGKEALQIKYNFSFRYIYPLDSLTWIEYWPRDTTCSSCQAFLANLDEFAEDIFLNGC
# if measured IC50 < 20 nM: Yes  # else: No

Compound: CCCCCOc1cc(N2CCCN(Cc3ccnc4c3c(Cl)cn4CC(=O)N(C)C)C2=O)ccc1OC
Tested Target: Human C5 (Homo sapiens)
Classification: Yes
--
Compound: CCCCCOc1cc(N2CCCN(Cc3ccc(CCOC(=O)N(C)C)cc3OC)C2=O)ccc1OC
Tested Target: Human C5 (Homo sapiens)
Classification: No
--
Compound: COc1cc(CC(=O)N(C)C)ccc1CN1CCCN(c2ccc(OC)c(OCCCC(C)(F)F)c2)C1=O
Tested Target: Human C5 (Homo sapiens)
Classification: Yes

Quick check: does COc1ccc(N2CCCN(Cc3ccnc4c3ccn4CC(=O)N(C)C)C2=O)cc1OCC[C@@H]1C[C@@H]2CC[C@H]1C2 have IC50 under 20 nM?
No

Quick check: does CCCCCOc1cc(N2CCCN(Cc3ccc(CN4CCOCC4)cc3OC)C2=O)ccc1OC have IC50 under 20 nM?
No

Quick check: does CCCCCOc1cc(N2CCCN(Cc3ccc(CC(=O)N4CCO[C@H](CN(C)C)C4)cc3OC)C2=O)ccc1OC (stereo in doubt) have IC50 under 20 nM?
Yes

Quick check: does CCCCCOc1cc(N2CCCN(Cc3cccc4c3ccn4CC(=O)N(C)C)C2=O)ccc1OC have IC50 under 20 nM?
Yes
